Data origin: patent US3974157A

system: arrhythmia produced in dogs or cats by ouabain; assay: anti-arrhythmic activity: preventing or reversing the arrhythmia produced by ouabain; assay type: in vivo; details: ouabain given i.v. until an arrhythmia lasting 10 minutes, after 10 mg/kg i.v. pretreatment with test compound
compounds and their reported Amount Ouabain
Respond numerically; units are µg/kg and should not be typed.

Req: Fill in the blank: the reported Amount Ouabain of CC(=O)OC1(C(C)CN(C)C)CCCCC1c1ccccc1 (single isomer, unassigned) is ____.
Resp: 85

Req: Fill in the blank: the reported Amount Ouabain of COc1ccc(C2CCCCC2(O)C(C)CN(C)C)cc1.Cl (stereo not drawn) is ____.
Resp: 80

Req: Fill in the blank: the reported Amount Ouabain of CNC(C)C1(O)CCCCC1c1ccccc1.Cl (stereo not drawn) is ____.
Resp: 140

Req: Fill in the blank: the reported Amount Ouabain of COc1ccc(C2CCCCC2(OC(C)=O)C(C)CN(C)C)cc1OC.Cl (stereo not drawn) is ____.
Resp: 70

Req: Fill in the blank: the reported Amount Ouabain of CC(CN1CCCC1)C1(O)CCCCC1c1ccccc1 (stereo not drawn) is ____.
Resp: 100

Req: Fill in the blank: the reported Amount Ouabain of CC(N)C1(O)CCCCC1c1ccccc1.Cl (stereo not drawn) is ____.
Resp: 95
